# test.target: human APJ receptor (Homo sapiens (Human), UniProt P35414)
# Sequence (P35414 whole entry): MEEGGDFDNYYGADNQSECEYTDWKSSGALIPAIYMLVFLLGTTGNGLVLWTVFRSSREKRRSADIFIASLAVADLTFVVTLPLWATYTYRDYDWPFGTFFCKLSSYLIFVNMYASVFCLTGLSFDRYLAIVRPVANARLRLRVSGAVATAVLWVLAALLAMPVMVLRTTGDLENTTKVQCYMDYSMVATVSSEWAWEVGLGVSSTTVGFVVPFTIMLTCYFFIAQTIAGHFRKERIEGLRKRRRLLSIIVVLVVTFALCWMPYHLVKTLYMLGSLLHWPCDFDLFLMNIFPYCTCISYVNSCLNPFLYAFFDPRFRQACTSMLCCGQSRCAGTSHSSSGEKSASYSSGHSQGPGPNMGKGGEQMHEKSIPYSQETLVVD
# protocol: Intracellular cAMP accumulation assay (APJ hcAMP, HTRF)
# Type: cell-based
# conditions: HEK293 cells stably expressing human APJ receptor; inhibition of forskolin-mediated cAMP production; read-out: hAPJ cAMP EC50 Potency range
Catalogue of compounds with associated EC50

Some solved cases for reference:
structure.smiles	EC50
CCOCc1nc(O)c(-c2nnc(CN3CCCC3=O)o2)c(O)c1-c1c(OC)cc(F)cc1OC	10 to 100 nM
CCOCc1nc(O)c(-c2nnc(Cc3ccc(Cl)cc3)o2)c(O)c1-c1c(OC)cc(F)cc1OC	0.01 to 10 nM
CCCCc1nc(O)c(-c2nnc(Cc3ccc(C(F)(F)F)cc3)o2)c(O)c1-c1c(OC)cccc1OC	0.01 to 10 nM

Looking up COc1cccc(OC)c1-c1c(C2CC2)[nH]c(=O)c(-c2nnc(Cc3ccc(Cl)cc3)o2)c1O , I found its EC50 recorded as 10 to 100 nM

The compound listed as CCCCc1nc(O)c(-c2nnc(Cc3nnc(-c4ccccc4Cl)o3)o2)c(O)c1-c1c(OC)cccc1OC shows EC50 equal to 0.01 to 10 nM

The compound listed as CCCCc1nc(O)c(-c2nnc(Cc3n[nH]c(=O)c4ccccc34)o2)c(O)c1-c1c(OC)cccc1OC shows EC50 equal to 10 to 100 nM

Measured EC50, CCCCc1nc(O)c(-c2nnc(Cc3nnc(-c4ccccc4)[nH]3)o2)c(O)c1-c1c(OC)cccc1OC : 0.01 to 10 nM

Noted for CCCCc1nc(O)c(-c2nnc(Cc3nnc(-c4ccccn4)o3)o2)c(O)c1-c1c(OC)cccc1OC : its EC50 reads 0.01 to 10 nM

Quick note, EC50 for CCCCc1nc(O)c(-c2nnc(Cc3nnn(C)n3)o2)c(O)c1-c1c(OC)cccc1OC landed at 0.01 to 10 nM

Memo: CCCCc1nc(O)c(-c2nnc(Cc3csc(C)n3)o2)c(O)c1-c1c(OC)cccc1OC , reported EC50: 0.01 to 10 nM

The compound listed as CCCCc1nc(O)c(-c2nnc(Cc3ccc(F)c(F)c3)o2)c(O)c1-c1cccc(COC)c1 has a reported EC50 of 10 to 100 nM

GET /value?item= CCCCc1nc(O)c(-c2nnc(CC(=O)N3CCNC(=O)C3)o2)c(O)c1-c1c(OC)cccc1OC &field=EC50 returns 0.01 to 10 nM

Lab note: CCCCCNC(=O)Cc1nnc(-c2c(O)nc(CCCC)c(-c3c(OC)cccc3OC)c2O)o1 gave EC50 of 10 to 100 nM

Lab book: EC50 of CCCCc1nc(O)c(-c2nnc(CCc3ncc(-c4ccccc4)o3)o2)c(O)c1-c1c(OC)cccc1OC noted as 10 to 100 nM

get_value(item= CCCCc1nc(O)c(-c2nnc(CC(=O)N3CCCCC3)o2)c(O)c1-c1c(OC)cccc1OC , readout=EC50) returns 0.01 to 10 nM

Each recorded value in this set is attributed to patent US10336739B2.
